molecular target: ERα (Homo sapiens, UniProt P03372); assay: Degradation of ERα in T-47D cells (immunoblotting, 4 h); format: cell-based; parameters: host or cells: T-47D; conditions: 10nM compound
Sequence (P03372 whole entry): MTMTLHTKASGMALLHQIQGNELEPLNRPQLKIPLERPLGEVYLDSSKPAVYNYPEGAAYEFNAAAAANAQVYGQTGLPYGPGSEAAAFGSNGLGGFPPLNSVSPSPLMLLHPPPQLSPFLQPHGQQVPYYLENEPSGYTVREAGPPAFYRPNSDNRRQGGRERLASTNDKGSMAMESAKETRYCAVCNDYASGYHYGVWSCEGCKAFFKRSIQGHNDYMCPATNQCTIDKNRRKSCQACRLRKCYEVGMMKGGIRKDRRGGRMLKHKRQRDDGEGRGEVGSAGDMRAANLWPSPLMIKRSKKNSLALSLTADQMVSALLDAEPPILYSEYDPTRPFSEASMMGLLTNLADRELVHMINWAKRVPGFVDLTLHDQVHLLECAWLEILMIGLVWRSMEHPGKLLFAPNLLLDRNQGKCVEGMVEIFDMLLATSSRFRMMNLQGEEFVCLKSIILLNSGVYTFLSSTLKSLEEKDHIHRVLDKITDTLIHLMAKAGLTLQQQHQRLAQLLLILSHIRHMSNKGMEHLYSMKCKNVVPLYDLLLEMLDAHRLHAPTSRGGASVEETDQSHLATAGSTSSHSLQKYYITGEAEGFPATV
A collection of compounds and their measured Degradation rate (%) of ERα in T-47D cells
value.type: Degradation rate (%) of ERα in T-47D cells

{"compound": "O=C1CCC(N2Cc3c(ccc4c3OCC43CCN(C(=O)[C@H]4CC[C@@H](N(CC5CC5)C5CCN(c6ccc([C@@H]7c8ccc(O)cc8CC[C@@H]7c7ccccc7)cc6)CC5)CC4)CC3)C2=O)C(=O)N1 (some centres unmarked)", "unit.spec": "%", "assay.value": 80}
{"compound": "O=C1CCC(N2Cc3cc4c(cc3C2=O)OC2(CC4)CN(C3CCC4(CC3)CN(c3ccc(C5c6ccc(O)cc6CCC5c5ccccc5)cc3)C4)C2)C(=O)N1 (centres unmarked)", "unit.spec": "%", "assay.value": 33}
{"compound": "O=C1CCC(N2Cc3ccc4c(c3C2=O)OCC2(CCN(C3CCC5(CC3)CCN(c3ccc([C@@H]6c7ccc(O)cc7CC[C@@H]6c6ccccc6)cc3)CC5)CC2)C4)C(=O)N1 (some centres unmarked)", "unit.spec": "%", "assay.value": 54}
{"compound": "C[C@@H]1Cc2cc(O)ccc2[C@@H](c2c(F)cc(N3CCC(C(=O)N4CCC(N5CCC6(CC5)COc5c6ccc6c5CN(C5CCC(=O)NC5=O)C6=O)CC4)CC3)cc2F)N1CC(F)F (some centres unmarked)", "unit.spec": "%", "assay.value": 55}
{"compound": "O=C1CCC(N2Cc3c(ccc4c3OCC43CCN(C4CCN(C(=O)C5(F)CCN(c6ccc([C@@H]7c8ccc(O)cc8CC[C@@H]7c7ccccc7)cc6)CC5)CC4)CC3)C2=O)C(=O)N1 (some centres unmarked)", "unit.spec": "%", "assay.value": 70}
{"compound": "O=C1CCC(N2Cc3cc4c(cc3C2=O)CCC2(CN(C(=O)[C@H]3CC[C@H](CN5CCN(c6ccc([C@@H]7c8ccc(O)cc8CC[C@@H]7c7ccccc7)cc6)CC5)CC3)C2)O4)C(=O)N1 (some centres unmarked)", "unit.spec": "%", "assay.value": 74}
{"compound": "O=C1CCC(N2Cc3cc4c(cc3C2=O)CCC2(CCN(C3CC5(CCN(c6ccc(C7c8ccc(O)cc8CCC7c7ccccc7)cc6)CC5)C3)CC2)O4)C(=O)N1 (centres unmarked)", "unit.spec": "%", "assay.value": 54}
{"compound": "O=C1CCC(N2C(=O)c3cc4c(cc3C2=O)OCC2(CCN(C3CCC5(CC3)CN(c3ccc(C6c7ccc(O)cc7CCC6c6ccccc6)cc3)C5)CC2)C4)C(=O)N1 (centres unmarked)", "unit.spec": "%", "assay.value": 4}
{"compound": "O=C1CCC(N2Cc3c(ccc4c3OCC43CCN(C4CC5CC4CN5C4CC5(CCN(c6ccc([C@@H]7c8ccc(O)cc8CC[C@@H]7c7ccccc7)cc6)CC5)C4)CC3)C2=O)C(=O)N1 (some centres unmarked)", "unit.spec": "%", "assay.value": 73}
{"compound": "O=C1CCC(N2Cc3c(ccc4c3OCC43CCN(C(=O)CN4CC5(C4)CN(c4ccc([C@@H]6c7ccc(O)cc7CC[C@@H]6c6ccccc6)cc4)C5)CC3)C2=O)C(=O)N1 (some centres unmarked)", "unit.spec": "%", "assay.value": 73}
{"compound": "O=C1CCC(N2C(=O)c3ccc4c(c3C2=O)OCC42CCN(CC3CCN(c4ccc([C@@H]5c6ccc(O)cc6CC[C@@H]5c5ccccc5)cc4)CC3)CC2)C(=O)N1 (some centres unmarked)", "unit.spec": "%", "assay.value": -48}

* * *

target: UniProt P03372; assay: Degradation of ERα in MCF-7 cells (immunoblotting, 4 h); format: cell-based; conditions: 1nM compound
value.type: Degradation rate (%) of ERα in MCF-7 cells

{"compound": "O=C1CCC(N2Cc3c(ccc4c3OCC43CCN(CC4CCN(C5CCN(c6ccc([C@@H]7c8ccc(O)cc8CC[C@@H]7c7ccccc7)cc6)CC5)CC4)CC3)C2=O)C(=O)N1 (some centres unmarked)", "unit.spec": "%", "assay.value": 17}
{"compound": "O=C1CCC(N2Cc3cc4c(cc3C2=O)OC2(CC4)CN(C3CCN(C(=O)C4CCN(c5ccc([C@@H]6c7ccc(O)cc7CC[C@@H]6c6ccccc6)cc5)CC4)CC3)C2)C(=O)N1 (some centres unmarked)", "unit.spec": "%", "assay.value": 16}
{"compound": "O=C1CCC(N2Cc3c(ccc4c3OCC43CCN(C(=O)c4ccc(CN5CCN(c6ccc([C@@H]7c8ccc(O)cc8CC[C@@H]7c7ccccc7)cc6)CC5)cn4)CC3)C2=O)C(=O)N1 (some centres unmarked)", "unit.spec": "%", "assay.value": 59}
{"compound": "O=C1CCC(N2Cc3c(ccc4c3OCC43CCN(C(=O)[C@H]4CC[C@@H](N(CC5CC5)C5CCN(c6ccc([C@@H]7c8ccc(O)cc8CC[C@@H]7c7ccccc7)cc6)CC5)CC4)CC3)C2=O)C(=O)N1 (some centres unmarked)", "unit.spec": "%", "assay.value": 63}
{"compound": "O=C1CCC(N2Cc3c(ccc4c3OCC43CCN(C4CCN(CC5CCN(c6ccc([C@@H]7c8ccc(O)cc8CC[C@@H]7c7ccccc7)cc6)CC5)C(=O)C4)CC3)C2=O)C(=O)N1 (some centres unmarked)", "unit.spec": "%", "assay.value": 25}
{"compound": "O=C1CCC(N2Cc3c(ccc4c3OCC43CCN(C(=O)C4CCN(CC5(F)CCN(c6ccc([C@@H]7c8ccc(O)cc8CC[C@@H]7c7ccccc7)cc6)CC5)CC4)CC3)C2=O)C(=O)N1 (some centres unmarked) [E1]", "unit.spec": "%", "assay.value": 39}
{"compound": "O=C1CCC(N2Cc3ccc4c(c3C2=O)OCC42CCN(C3CCN(C(=O)C4(F)CCN(c5ccc([C@@H]6c7ccc(O)cc7CC[C@@H]6c6ccccc6)cc5)CC4)CC3F)CC2)C(=O)N1 (some centres unmarked)", "unit.spec": "%", "assay.value": 31}
{"compound": "O=C1CCC(N2Cc3c(ccc4c3OC3(CC4)CCN(C4CCN(C(=O)C5CCN(c6ccc([C@@H]7c8ccc(O)cc8CC[C@@H]7c7ccccc7)cc6)CC5)CC4)CC3)C2=O)C(=O)N1 (some centres unmarked)", "unit.spec": "%", "assay.value": -19}
{"compound": "CN(C(=O)CN1CCC2(CC1)COc1c2ccc2c1CN(C1CCC(=O)NC1=O)C2=O)C1CCN(c2ccc([C@@H]3c4ccc(O)cc4CC[C@@H]3c3ccccc3)cc2)CC1 (some centres unmarked)", "unit.spec": "%", "assay.value": 20}
{"compound": "C[C@@H]1Cc2cc(O)ccc2C(c2c(F)cc(N3CCC(C(=O)N4CCC(N5CCC6(CC5)COc5c6ccc6c5CN(C5CCC(=O)NC5=O)C6=O)[C@H](F)C4)CC3)cc2F)N1CC(F)F (some centres unmarked)", "unit.spec": "%", "assay.value": 53}
{"compound": "O=C1CCC(N2Cc3cc4c(cc3C2=O)OCC42CCN(C3CCC4(CC3)CN(c3ccc([C@@H]5c6ccc(O)cc6CC[C@@H]5c5ccccc5)cc3)C4)CC2)C(=O)N1 (some centres unmarked)", "unit.spec": "%", "assay.value": 14}

* * *

Below: a set of entries, each annotated with reported Degradation rate (%) of ERα in MCF-7 cells.
target: ERα (Homo sapiens); experiment: Degradation of ERα in MCF-7 cells (immunoblotting, 4 h); format: cell-based; details: 1nM compound
value.type: Degradation rate (%) of ERα in MCF-7 cells

{"compound": "O=C1CCC(N2Cc3c(ccc4c3OC3(CC4)CCN(C4CN(C5CCN(c6ccc([C@@H]7c8ccc(O)cc8CC[C@@H]7c7ccccc7)cc6)CC5)C4)CC3)C2=O)C(=O)N1 (stereo partly shown)", "assay.value": -10}
{"compound": "O=C1CCC(N2Cc3c(ccc4c3OCC43CCN(C(=O)CN4CCC5(CCN(c6ccc([C@@H]7c8ccc(O)cc8CC[C@@H]7c7ccccc7)cc6)C5)C4)CC3)C2=O)C(=O)N1 (stereo partly shown)", "assay.value": 39}
{"compound": "O=C1CCC(N2Cc3c(ccc4c3OCC43CCN(CC(=O)N4CCN(c5ccc([C@@H]6c7ccc(O)cc7CC[C@@H]6c6ccccc6)cc5)CC4)CC3)C2=O)C(=O)N1 (stereo partly shown)", "assay.value": 18}
{"compound": "CCNC(=O)[C@@H]1CC(N2CCC3(CC2)COc2c3ccc3c2CN(C2CCC(=O)NC2=O)C3=O)CCN1C1CC2(CCN(c3ccc([C@@H]4c5ccc(O)cc5CC[C@@H]4c4ccccc4)cc3)CC2)C1 (stereo partly shown)", "assay.value": 69}
{"compound": "C[C@@H]1Cc2c(ccc3[nH]ncc23)C(c2ccc(N3CCC(N4CC[C@@H](N5CCC6(CC5)COc5c6ccc6c5CN(C5CCC(=O)NC5=O)C6=O)[C@@H](F)C4)CC3)cn2)N1CC(F)(F)F (stereo partly shown)", "assay.value": 38}
{"compound": "O=C1CCC(N2Cc3c(ccc4c3OCC43CCN(C(=O)c4ccc(CN5CCN(c6ccc([C@@H]7c8ccc(O)cc8CC[C@@H]7c7ccccc7)cc6)CC5)nc4)CC3)C2=O)C(=O)N1 (stereo partly shown)", "assay.value": 28}
{"compound": "O=C1CCC(N2Cc3c(ccc4c3OCC43CCN(C4CCN(C(=O)C5CCN(c6ccc([C@@H]7c8ccc(O)cc8CC[C@@H]7c7ccccc7)cc6)CC5)[C@@H](C(=O)N5CCC(F)(F)CC5)C4)CC3)C2=O)C(=O)N1 (stereo partly shown)", "assay.value": 18}
{"compound": "CN(CC(=O)N1CCC2(CC1)COc1c2ccc2c1C(=O)N(C1CCC(=O)NC1=O)C2=O)C1CCC2(CC1)CN(c1ccc([C@@H]3c4ccc(O)cc4CC[C@@H]3c3ccccc3)cc1)C2 (stereo partly shown)", "assay.value": 15}
{"compound": "O=C1CCC(N2Cc3c(ccc4c3OCC43CCN(C4CCN(C5CN(c6ccc([C@@H]7c8ccc(O)cc8CC[C@@H]7c7ccccc7)cc6)C5)CC4)CC3)C2=O)C(=O)N1 (stereo partly shown)", "assay.value": -4}
{"compound": "C[C@@H]1Cc2c([nH]c3ccccc23)[C@@H](c2c(F)cc(N3CCC4(CCN(CC(=O)N5CCC6(CC5)COc5c6ccc6c5CN(C5CCC(=O)NC5=O)C6=O)C4)CC3)cc2F)N1CC(F)F (stereo partly shown)", "assay.value": 39}
